Molecular target: recombinant human Myt1 (full length PKMYT1) (Homo sapiens (Human), UniProt Q99640)
Sequence (Q99640 whole entry): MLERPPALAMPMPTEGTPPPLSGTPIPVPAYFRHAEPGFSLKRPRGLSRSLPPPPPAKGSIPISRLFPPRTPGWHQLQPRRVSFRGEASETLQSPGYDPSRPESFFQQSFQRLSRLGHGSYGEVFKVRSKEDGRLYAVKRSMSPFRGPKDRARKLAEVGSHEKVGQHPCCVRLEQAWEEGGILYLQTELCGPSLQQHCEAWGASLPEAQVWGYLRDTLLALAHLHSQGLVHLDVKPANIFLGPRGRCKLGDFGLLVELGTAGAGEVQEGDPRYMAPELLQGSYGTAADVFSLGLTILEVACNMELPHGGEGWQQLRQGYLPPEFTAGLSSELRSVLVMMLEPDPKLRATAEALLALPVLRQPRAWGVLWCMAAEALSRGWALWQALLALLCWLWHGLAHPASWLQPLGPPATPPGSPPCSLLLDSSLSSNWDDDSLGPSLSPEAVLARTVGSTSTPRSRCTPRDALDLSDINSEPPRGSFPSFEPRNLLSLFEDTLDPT
Assay: Recombinant human Myt1 kinase assay (ADP-Glo)
Conditions: 10 μM ATP
PARAMETER: pIC50
Just the number, please; pIC50 means minus log10 of the concentration in mol/L.

Supply measured pIC50 of "Cc1ccc2[nH]ncc2c1-c1nc(-c2ccccc2NCC(F)(F)F)cc(C(N)=O)c1N" in your reply. 8.30

Supply measured pIC50 of "Cc1ccc2[nH]ncc2c1-c1cc(-c2ccnc(OCCOC3CC3)n2)nc(C(N)=O)c1N" in your reply. 8.22

Supply measured pIC50 of "Cc1ccc2[nH]ncc2c1-c1nc(-c2cccnc2Nc2ncccc2F)nc(C(N)=O)c1N" in your reply. 8.52

* * *

Target: recombinant human Myt1 (full length PKMYT1) (Homo sapiens (Human))
Assay: Recombinant human Myt1 kinase assay (ADP-Glo)
Conditions: 10 μM ATP
PARAMETER: pIC50
Just the number, please; pIC50 means minus log10 of the concentration in mol/L.

Known pIC50 results, listed for orientation:
| MOLECULE | pIC50 |
| --- | --- |
| Cc1ccc2[nH]ncc2c1-c1cc(-c2ccnc(OCC3CCC(=O)N3)n2)nc(C(N)=O)c1N (stereo not drawn) [Compound 317] | 7.89 |
| Cc1ccc(O)cc1-c1nc(-c2cnn(C)c2)nc(C(N)=O)c1N [Compound 34] | 7.09 |
| Cc1ccc2[nH]ncc2c1-c1nc(-c2cc(F)cnc2NC2CCOC(C(F)(F)F)C2)nc(C(N)=O)c1N (stereo not drawn) [Compound 873] | 7.72 |
| Cc1ccc2[nH]ncc2c1-c1cc(-c2cccc(O[C@H](C)c3ncccn3)n2)nc(C(N)=O)c1N [Compound 254] | 8.30 |
| Cc1cccc(-c2nc(C(N)=O)c(N)c(-c3c(C)ccc4[nH]ncc34)n2)c1NC(=O)C1(C)CC1 [Compound 440] | 7.89 |
| Cc1ccc2[nH]ncc2c1-c1nc(-c2ccccc2NC(=O)C2(C3CC3)CC2)nc(C(N)=O)c1N [Compound 478] | 8.22 |
| Cc1ccc2[nH]ncc2c1-c1nc(-c2ccc3cn[nH]c3c2)nc(C(N)=O)c1N [Compound 129] | 7.64 |
| Cc1ccc2[nH]ncc2c1-c1nc(-c2ccccc2NC(=O)[C@@]2(C)CCCN2)nc(C(N)=O)c1N [Compound 431] | 8.10 |

Supply measured pIC50 of Cc1ccc2[nH]ncc2c1-c1cc(-c2ccnc(OCCc3ncccn3)n2)nc(C(N)=O)c1N (atropisomer, axis not shown) [Compound 330] in your reply. 7.06

Supply measured pIC50 of Cc1ccc2[nH]ncc2c1-c1cc(-c2ccnc(NC3CC3)n2)nc(C(N)=O)c1N [Compound 163] in your reply. 7.96

Supply measured pIC50 of COCC(Oc1nccc(-c2cc(-c3c(C)ccc4[nH]ncc34)c(N)c(C(N)=O)n2)n1)c1ccccc1 (stereo not drawn) [Compound 206] in your reply. 8.10

Supply measured pIC50 of Cc1ccc2[nH]ncc2c1-c1nc(-c2ccccc2NC(=O)C2(C)CC(F)(F)C2)nc(C(N)=O)c1N [Compound 462] in your reply. 8.40

Supply measured pIC50 of Cc1ccc2[nH]ncc2c1-c1cc(-c2ccnc(OCCOc3ccccc3)n2)nc(C(N)=O)c1N [Compound 195] in your reply. 6.74

* * *

Molecular target: recombinant human Myt1 (full length PKMYT1) (Homo sapiens (Human), UniProt Q99640)
Experiment: Recombinant human Myt1 kinase assay (ADP-Glo)
Details: 10 μM ATP
PARAMETER: IC50 (µM)
Give the value in µM but do not write µM after it.

Known IC50 results, listed for orientation:
| COMPOUND | TARGET_DESC | PARAMETER | VALUE_UNIT | RESULT_VALUE |
| --- | --- | --- | --- | --- |
| Cc1ccc2[nH]ncc2c1-c1nc(-c2ccncc2)nc(C(N)=O)c1N [Compound 100] | recombinant human Myt1 (full length PKMYT1) (Homo sapiens (Human), UniProt Q99640) | IC50 | µM | 0.027 |
| COC[C@@H](C)Oc1nccc(-c2cc(-c3c(C)ccc4[nH]ncc34)c(N)c(C(N)=O)n2)n1 [Compound 204] | recombinant human Myt1 (full length PKMYT1) (Homo sapiens (Human), UniProt Q99640) | IC50 | µM | 0.006 |
| Cc1ccc2[nH]ncc2c1-c1cc(-c2ccnc(OCCc3ccccn3)n2)nc(C(N)=O)c1N [Compound 239] | recombinant human Myt1 (full length PKMYT1) (Homo sapiens (Human), UniProt Q99640) | IC50 | µM | 0.004 |

Supply measured IC50 of Cc1ccc(O)c(C)c1-c1cc(C(=O)O)nc(C(N)=O)c1N [Compound 53] in your reply. 1.83

* * *

Molecular target: recombinant human Myt1 (full length PKMYT1) (Homo sapiens (Human), UniProt Q99640)
Experiment: Recombinant human Myt1 kinase assay (ADP-Glo)
Conditions: 10 μM ATP
pIC50: −log10 of the molar value.
Param threshold (8) applies to pIC50; output class 1 when value >= threshold, class 0 when value < threshold.

| SAMPLE_SMILES | GROUP_LABEL |
| --- | --- |
| Cc1ccc(O)cc1-c1cc2cccnc2c(C(N)=O)c1N | class 0 |
| Cc1ccc2[nH]ncc2c1-c1nc(-c2ccccc2)nc(C(N)=O)c1N | class 0 |
| Cc1ccc2[nH]ncc2c1-c1nc(-c2ccccc2S(=O)(=O)NC(C)(C)C)nc(C(N)=O)c1N | class 0 |
| COC1(C(=O)Nc2ccccc2-c2nc(C(N)=O)c(N)c(-c3c(C)ccc4[nH]ncc34)n2)CC1 | class 1 |

Then there is this compound:
Determine whether measured pIC50 meets or exceeds 8 for "CO[C@@H](COc1cccc(-c2cc(-c3c(C)ccc4[nH]ncc34)c(N)c(C(N)=O)n2)c1)c1ccccc1" class 0

* * *

Listing of recorded pIC50 by entry.
Tested on: PKMYT1 (CDK1 pThr14) in FUOV1 cells
Experiment: PKMYT1 cell-based activity assay, CDK1 pThr14 AlphaLISA in FUOV1 cells
Conditions: 2 h compound incubation, read-out: FUOV-1 CDK1 pThr14 IC50
Just the number, please; pIC50 means minus log10 of the concentration in mol/L.

| MOLECULE | pIC50 |
| --- | --- |
| Cc1ccc2[nH]ncc2c1-c1nc(-c2cccnc2Nc2cccnc2)nc(C(N)=O)c1N [Compound 595] | 5.81 |

Report the value of pIC50 obtained on PKMYT1 (CDK1 pThr14) in FUOV1 cells for Cc1ccc2[nH]ncc2c1-c1cc2c(oc3ccc(NC4CCOCC4)nc32)c(C(N)=O)c1N (atropisomer, axis not shown) . 7.62

Report the value of pIC50 obtained on PKMYT1 (CDK1 pThr14) in FUOV1 cells for Cc1ccc2[nH]ncc2c1-c1nc(-c2cccnc2Nc2cccnc2)nc(C(N)=O)c1N [Compound 768] . 6.91

* * *

Listing of recorded pIC50 by entry.
Target: recombinant human Myt1 (full length PKMYT1) (Homo sapiens (Human), UniProt Q99640)
Test: Recombinant human Myt1 kinase assay (ADP-Glo)
Settings: 10 μM ATP
Just the number, please; pIC50 means minus log10 of the concentration in mol/L.

Supply measured pIC50 of NC(=O)c1nc(-c2ccccc2NC(=O)C2(C(F)(F)F)CC2)nc(-c2c(Cl)ccc3[nH]ncc23)c1N [Compound 411] in your reply. 8.15

Supply measured pIC50 of Cc1ccc2[nH]ncc2c1-c1cc(-c2cccc(OC[C@H]3CCCO3)n2)nc(C(N)=O)c1N [Compound 356] in your reply. 8.05

Supply measured pIC50 of Cc1ccc2[nH]ncc2c1-c1cc(-c2cnccn2)nc(C(N)=O)c1N [Compound 190] in your reply. 7.70

Supply measured pIC50 of Cc1ccc(O)c(C)c1-c1cc(-c2nc3ccccc3s2)nc(C(N)=O)c1N [Compound 55] in your reply. 7.82

Supply measured pIC50 of Cc1ccc2[nH]ncc2c1-c1cc(-c2ccnc(OCCc3nccs3)n2)nc(C(N)=O)c1N [Compound 313] in your reply. 8.22

Supply measured pIC50 of Cc1ccc2[nH]ncc2c1-c1nc(-c2cc(F)c(F)cc2NC2CCOCC2)nc(C(N)=O)c1N [Compound 466] in your reply. 8.22

Supply measured pIC50 of Cc1ccc2[nH]ncc2c1-c1nc(-c2ccccc2C(F)F)nc(C(N)=O)c1N [Compound 414] in your reply. 6.91

Supply measured pIC50 of Cc1ccc2[nH]ncc2c1-c1cc(-c2cccnc2)nc(C(N)=O)c1N [Compound 97] in your reply. 7.27

Supply measured pIC50 of Cc1ccc2[nH]ncc2c1-c1cc(-c2cccc(N[C@H]3C[C@H](O)C3)n2)nc(C(N)=O)c1N [Compound 322] in your reply. 8.00

Supply measured pIC50 of Cc1ccc2[nH]ncc2c1-c1nc(-c2ccccc2NS(C)(=O)=O)nc(C(N)=O)c1N [Compound 427] in your reply. 8.40

Supply measured pIC50 of Cc1ccc2[nH]ncc2c1-c1cc(-c2ccnc(N3Cc4ccccc4C[C@H]3CO)n2)nc(C(N)=O)c1N (atropisomer, axis not shown) [Compound 392] in your reply. 6.34
